# METHOD_SUMMARY: gradient 5% acetonitrile 3 min, to 50% in 2 min, to 85% in 15 min, held 3 min, 100 µL/min
# TEST_CONTEXT: column: Zorbax Extend-C18 2.1 x 50 mm; eluents: water / acetonitrile, 0.1% formic acid
PROPERTY: RP-LC retention time
Record the result as number plus unit.

query: Could you tell me which RP-LC retention time is on file for CCOC(=O)C(C)NC(=O)N1CCN(Cc2nc3cccnc3n2-c2cc(C)cc(C)c2)CC1 (stereo unspecified) ?
result: 658 s

query: Could you tell me which RP-LC retention time is on file for CC(C)c1noc(C2(NC(=O)c3ccc(Cl)cc3)CCCCC2)n1 ?
result: 1100 s

query: Could you tell me which RP-LC retention time is on file for CS(=O)(=O)N1CCCC1C(=O)Nc1cccc(F)c1 (stereo unspecified) ?
result: 730 s

query: Could you tell me which RP-LC retention time is on file for CCn1ccc2c(cc(C(=O)Nc3ccc(Cl)cc3C)n2C)c1=O ?
result: 1320 s

query: Could you tell me which RP-LC retention time is on file for COc1ccc(NC(=O)C2(C)CCCCC(=O)N2)cc1 (stereo unspecified) ?
result: 640 s

***
query: Could you tell me which RP-LC retention time is on file for [O-][n+]1nc2ccccc2c2ccccc21 ?
result: 812 s

query: Could you tell me which RP-LC retention time is on file for CCN(CC)S(=O)(=O)c1cc(-c2nnc(-c3ccccc3OC)o2)ccc1C ?
result: 1030 s

query: Could you tell me which RP-LC retention time is on file for Cn1nc(CN(C(=O)c2ccccc2F)c2ccccc2)c2c1CCN(S(C)(=O)=O)C2 ?
result: 779 s

query: Could you tell me which RP-LC retention time is on file for O=C(CCc1c(-c2ccc(Cl)cc2)nc2ccccn12)NCc1ccccc1F ?
result: 688 s

query: Could you tell me which RP-LC retention time is on file for Cc1nc(-c2csc(S(=O)(=O)N3CCCC(C(=O)N4CCc5ccccc54)C3)c2)no1 (stereo unspecified) ?
result: 1020 s

query: Could you tell me which RP-LC retention time is on file for Cc1ccc(-c2cc(C(=O)N3CCN(c4ccc(N5CCOCC5)nn4)CC3)[nH]n2)cc1C ?
result: 657 s

query: Could you tell me which RP-LC retention time is on file for CC(=O)Nc1ccc2c(c1)CN(C(=O)c1c(F)cccc1Cl)C(C(=O)N(C)C)C2 (stereo unspecified) ?
result: 900 s

query: Could you tell me which RP-LC retention time is on file for CC1=NS(=O)(=O)N(Cc2ccccc2)C=C1C(=O)OCc1ccc(C(F)(F)F)cc1 ?
result: 1190 s

query: Could you tell me which RP-LC retention time is on file for O=C(N[C@@H]1CN(c2ncccn2)C[C@H]1CO)c1ccc(Cl)cc1 ?
result: 628 s

====

# RP-LC retention time listing for each entry below
# METHOD_SUMMARY: gradient 5% acetonitrile 3 min, to 50% in 2 min, to 85% in 15 min, held 3 min, 100 µL/min
# TEST_CONTEXT: column: Zorbax Extend-C18 2.1 x 50 mm; eluents: water / acetonitrile, 0.1% formic acid
Respond with the bare value in s.

Solved entries (count: 5):
query: Could you tell me which RP-LC retention time is on file for Cc1c(Cl)cccc1S(=O)(=O)N1CCC2(CC1)OCCS2 ?
result: 1050

query: Could you tell me which RP-LC retention time is on file for CCN1CCN(CCCNC(=O)Cn2cnc3nc4c(cc3c2=O)CCCC4)CC1 ?
result: 554

query: Could you tell me which RP-LC retention time is on file for COc1ccc(-c2cc(C(=O)N3CCN(C)CC3)nn2C2CCS(=O)(=O)C2)cc1 (stereo not given) ?
result: 613

query: Could you tell me which RP-LC retention time is on file for O=C(Cc1cccs1)N1CCC(c2nc(-c3ccccc3)no2)C1 (stereo not given) ?
result: 883

query: Could you tell me which RP-LC retention time is on file for CN(C)Cc1nc(-c2cn(C)c3ccccc23)no1 ?
result: 684

***
query: Could you tell me which RP-LC retention time is on file for Cc1c(-c2ccnc(N3CCCCC3)n2)cnc2nc(-c3ccc(Cl)cc3)nn12 ?
result: 1400

query: Could you tell me which RP-LC retention time is on file for Cc1ccc(C2(O)C(=O)N(Cc3nc(-c4ccccc4)oc3C)c3ccccc32)cc1 (stereo not given) ?
result: 1110

query: Could you tell me which RP-LC retention time is on file for Cc1nn(C(C)C(=O)NCCN(C)C)c(=O)c2nn(-c3ccccc3)c(C)c12 (stereo not given) ?
result: 601

query: Could you tell me which RP-LC retention time is on file for O=C(NC1CCCC1)N1CCC(c2noc(-c3cccnc3)n2)C1 (stereo not given) ?
result: 701

query: Could you tell me which RP-LC retention time is on file for O=C(NCC1CN(CC2CC2)CC12CCCCC2)Nc1ccc(F)cc1 (stereo not given) ?
result: 687

query: Could you tell me which RP-LC retention time is on file for CCSc1ccccc1C(=O)NCc1ccsc1 ?
result: 786

query: Could you tell me which RP-LC retention time is on file for CCc1nnc(-c2cc(C)n(CC(=O)Nc3cc(C)ccc3C)c2C)o1 ?
result: 789

query: Could you tell me which RP-LC retention time is on file for Cc1cccc(CNC(=O)c2ncn3c2C(=O)N(C2CC2)C(C)(C(=O)NC2CCCC2)C3)c1 (stereo not given) ?
result: 784

query: Could you tell me which RP-LC retention time is on file for CCOc1ccc(C(=O)N2CCC3(C2)C(=O)N(C)c2ccc(OC)cc23)cc1 (stereo not given) ?
result: 788

query: Could you tell me which RP-LC retention time is on file for COc1ccc(C)cc1NC(=O)c1cn2c(n1)CSCC2 ?
result: 841

query: Could you tell me which RP-LC retention time is on file for O=C(CCC1CCCN(c2cc(NC3CC3)ncn2)C1)NC1CCN(Cc2ccccc2)CC1 (stereo not given) ?
result: 570

====

# METHOD_SUMMARY: gradient 5% acetonitrile 3 min, to 50% in 2 min, to 85% in 15 min, held 3 min, 100 µL/min
# TEST_CONTEXT: column: Zorbax Extend-C18 2.1 x 50 mm; eluents: water / acetonitrile, 0.1% formic acid
# RP-LC retention time listing for each entry below
Respond with the bare value in s.

query: Could you tell me which RP-LC retention time is on file for O=C(Cn1cnc2c(-c3ccc(F)cc3)csc2c1=O)Nc1ccc(Br)cc1F ?
result: 1030

query: Could you tell me which RP-LC retention time is on file for COc1cccc(-c2nc(-c3ccc4c(c3)ncn4CCN3CCCCC3)no2)c1 ?
result: 657

query: Could you tell me which RP-LC retention time is on file for c1ccc(-c2nc3ccccn3c2Nc2ccc3c(c2)OCO3)cc1 ?
result: 677

query: Could you tell me which RP-LC retention time is on file for Cc1nn(CC(=O)NC2CC2)c(=O)c2nc(-c3ccccc3)sc12 ?
result: 711

query: Could you tell me which RP-LC retention time is on file for Cc1ccccc1Nc1c(-c2cccc(Br)c2)nc2ccccn12 ?
result: 799

For the next question, use this molecule.
query: Could you tell me which RP-LC retention time is on file for Cc1nc(-c2ccc(C(=O)NC3CCCCC3)cc2)cs1 ?
result: 900

====

# METHOD_SUMMARY: gradient 5% acetonitrile 3 min, to 50% in 2 min, to 85% in 15 min, held 3 min, 100 µL/min
# TEST_CONTEXT: column: Zorbax Extend-C18 2.1 x 50 mm; eluents: water / acetonitrile, 0.1% formic acid
PROPERTY: RP-LC retention time (s)
Respond with the bare value in s.

query: Could you tell me which RP-LC retention time is on file for COc1ccc(C(=O)N2CC(C(=O)NC3CC3)C(c3ccc(OC)cc3OC)C2)cc1 (centres undefined) ?
result: 703

query: Could you tell me which RP-LC retention time is on file for O=C(NCc1csc(-c2cccs2)n1)C1CCN(C(=O)COc2ccccc2)CC1 ?
result: 770

query: Could you tell me which RP-LC retention time is on file for CCNC(=O)Cc1nnc(-c2ccc(C)cc2)o1 ?
result: 664

For the next question, use this compound.
query: Could you tell me which RP-LC retention time is on file for CN(C)c1ccc(CNC(=O)c2cc3n(n2)CC(C)(C(=O)NCc2ccc(F)cc2)N(C)C3=O)cc1 (centres undefined) ?
result: 610

====

# METHOD_SUMMARY: gradient 5% acetonitrile 3 min, to 50% in 2 min, to 85% in 15 min, held 3 min, 100 µL/min
# TEST_CONTEXT: column: Zorbax Extend-C18 2.1 x 50 mm; eluents: water / acetonitrile, 0.1% formic acid
Output schema: class label derived from RP-LC retention time. Mapping: Low = under 700 s, Medium = from 700 s up to 800 s, High = 800 s and over

Known results for compounds:
query: Which class does COC(=O)c1c(NC(C)C)c2cccc(Cl)c2[nH]c1=O fall in?
result: Medium

query: Which class does Cc1c(S(=O)(=O)N2CCC(Cc3ccccc3)CC2)c(=O)n(C)c(=O)n1C fall in?
result: High

***
query: Which class does COCCn1cc(C(=O)Nc2ccc(Cl)cc2)c2nn(-c3ccccc3)c(=O)c-2c1 fall in?
result: High

query: Which class does CCCC(=O)N1CCC(C(=O)NCCc2cscn2)CC1 fall in?
result: Low

query: Which class does CC(Oc1ccccc1)C(=O)N1CCN(c2nc(CN3CCCCC3)cs2)CC1 (configuration not stated) fall in?
result: Low

query: Which class does O=C(Nc1cccc2nsnc12)C1CCN(S(=O)(=O)N2CCCC2)CC1 fall in?
result: High
